src = ChEMBL document CHEMBL5291721

So I've got AC50 readings for Sodium-dependent dopamine transporter (Homo sapiens, UniProt Q01959), take a look.

Recorded AC50, per entry:
CO/N=C(\C(=O)N[C@@H]1C(=O)N2C(C(=O)[O-])=C(C[N+]3(C)CCCC3)CS[C@H]12)c1csc(N)n1 | > 300 µM
CC(C)[N+](C)(CCC(C(N)=O)(c1ccccc1)c1ccccc1)C(C)C [ISOPROPAMIDE] | > 10 µM
C=C1CC[C@@]2(O)[C@H]3Cc4ccc(O)c5c4[C@@]2(CCN3CC2CC2)[C@H]1O5 | > 30 µM
CC(C)NNC(=O)c1ccncc1 | > 30 µM
CCN(CC)CCNC(=O)c1cc(Cl)c(N)cc1OC [METOCLOPRAMIDE] | > 10 µM

Item NC1=NC(=O)C(c2ccccc2)O1 (stereo not given) was tested on Sodium-dependent dopamine transporter (Homo sapiens, UniProt Q01959); the reported AC50 is 3.46 µM

Item Cc1ccc(C(=O)c2cc(O)c(O)c([N+](=O)[O-])c2)cc1 was tested on Sodium-dependent dopamine transporter (Homo sapiens, UniProt Q01959); the reported AC50 is 1.1 µM

Item CC(C(=O)O)c1ccc(C(=O)c2cccs2)cc1 (stereo not given) was tested on Sodium-dependent dopamine transporter (Homo sapiens, UniProt Q01959); the reported AC50 is > 10 µM

Item CN1CC[C@]23CCCC[C@H]2[C@H]1Cc1ccc(O)cc13 was tested on Sodium-dependent dopamine transporter (Homo sapiens, UniProt Q01959); the reported AC50 is > 30 µM

Item CCN(CC)CCOC(=O)c1ccc(N)cc1 was tested on Sodium-dependent dopamine transporter (Homo sapiens, UniProt Q01959); the reported AC50 is > 30 µM

====

List of AC50 values.
- Study system: UniProt P22303
- Sequence (P22303 whole entry): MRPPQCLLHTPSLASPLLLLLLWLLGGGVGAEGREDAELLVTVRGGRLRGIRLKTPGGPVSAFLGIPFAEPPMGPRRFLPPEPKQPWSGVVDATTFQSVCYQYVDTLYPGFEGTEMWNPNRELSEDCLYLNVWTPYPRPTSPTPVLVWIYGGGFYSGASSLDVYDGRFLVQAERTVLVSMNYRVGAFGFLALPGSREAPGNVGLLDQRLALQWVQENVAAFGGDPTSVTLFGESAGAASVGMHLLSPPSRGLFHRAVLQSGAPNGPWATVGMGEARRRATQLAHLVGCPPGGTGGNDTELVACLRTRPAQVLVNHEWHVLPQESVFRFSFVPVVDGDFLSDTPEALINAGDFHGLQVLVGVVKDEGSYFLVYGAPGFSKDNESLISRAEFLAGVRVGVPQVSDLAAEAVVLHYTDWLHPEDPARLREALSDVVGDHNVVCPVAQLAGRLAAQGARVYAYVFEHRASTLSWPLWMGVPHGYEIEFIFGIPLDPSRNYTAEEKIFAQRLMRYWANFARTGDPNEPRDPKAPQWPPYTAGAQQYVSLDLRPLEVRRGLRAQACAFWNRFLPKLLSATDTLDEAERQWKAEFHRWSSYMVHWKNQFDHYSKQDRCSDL
- Assay type: functional

Recorded AC50, per entry:
Sc1ncnc2nc[nH]c12 [MERCAPTOPURINE ANHYDROUS] | > 30 µM
CC(=O)O[C@]1(C(C)=O)CC[C@H]2[C@@H]3C[C@H](C)C4=CC(=O)CC[C@]4(C)[C@H]3CC[C@@]21C [MEDROXYPROGESTERONE ACETATE] | > 30 µM
CC(=O)OC(C)C[N+](C)(C)C (stereo not given) [METHACHOLINE] | > 30 µM
O=C(Cn1ccnc1[N+](=O)[O-])NCc1ccccc1 [BENZNIDAZOLE] | > 30 µM

AC50 reported for this compound Nc1ccc(/N=N/c2ccccc2)c(N)n1 [PHENAZOPYRIDINE] : > 3 µM

====

- Study system: UniProt P25929
- Sequence (P25929 whole entry): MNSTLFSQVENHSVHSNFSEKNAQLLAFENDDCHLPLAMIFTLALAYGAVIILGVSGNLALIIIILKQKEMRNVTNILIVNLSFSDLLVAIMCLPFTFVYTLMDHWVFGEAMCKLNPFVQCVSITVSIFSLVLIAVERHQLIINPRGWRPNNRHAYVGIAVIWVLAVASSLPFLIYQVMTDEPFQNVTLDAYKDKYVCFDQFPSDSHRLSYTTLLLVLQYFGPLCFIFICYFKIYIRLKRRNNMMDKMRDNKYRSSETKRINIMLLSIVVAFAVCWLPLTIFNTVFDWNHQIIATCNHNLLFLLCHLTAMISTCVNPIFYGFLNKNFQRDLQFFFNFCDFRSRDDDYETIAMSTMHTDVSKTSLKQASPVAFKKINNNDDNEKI
Observable: AC50

Recorded AC50, per entry:
CC(C)(N)Cc1ccc(Cl)cc1 | > 30 µM
NC(=O)c1ncn([C@@H]2O[C@H](CO)[C@@H](O)[C@H]2O)c1O | > 30 µM

AC50 reported for this compound CN(C)[C@@H]1C(O)=C(C(N)=O)C(=O)[C@@]2(O)C(O)=C3C(=O)c4c(O)ccc(Cl)c4[C@@H](O)[C@H]3C[C@@H]12 : > 10 µM

AC50 reported for this compound O=C(O)c1cc(-c2ccc(F)cc2F)ccc1O : > 10 µM

AC50 reported for this compound [H]/N=C(/N)c1ccc(NCc2nc3cc(C(=O)N(CCC(=O)O)c4ccccn4)ccc3n2C)cc1 : > 30 µM

AC50 reported for this compound NC[C@H]1O[C@H](O[C@H]2[C@H](O)[C@@H](O[C@H]3O[C@H](CO)[C@@H](O)[C@H](N)[C@H]3O)[C@H](N)C[C@@H]2N)[C@H](O)[C@@H](O)[C@@H]1O : > 10 µM

AC50 reported for this compound Cc1c(C(=O)Nc2ccc(N3C[C@@H](C)O[C@@H](C)C3)nc2)cccc1-c1ccc(OC(F)(F)F)cc1 : > 30 µM

====

List of AC50 values.
- Study system: 3',5'-cyclic-AMP phosphodiesterase 4D (Homo sapiens, UniProt Q08499); also: assay procedure not described here
- Sequence (Q08499 whole entry): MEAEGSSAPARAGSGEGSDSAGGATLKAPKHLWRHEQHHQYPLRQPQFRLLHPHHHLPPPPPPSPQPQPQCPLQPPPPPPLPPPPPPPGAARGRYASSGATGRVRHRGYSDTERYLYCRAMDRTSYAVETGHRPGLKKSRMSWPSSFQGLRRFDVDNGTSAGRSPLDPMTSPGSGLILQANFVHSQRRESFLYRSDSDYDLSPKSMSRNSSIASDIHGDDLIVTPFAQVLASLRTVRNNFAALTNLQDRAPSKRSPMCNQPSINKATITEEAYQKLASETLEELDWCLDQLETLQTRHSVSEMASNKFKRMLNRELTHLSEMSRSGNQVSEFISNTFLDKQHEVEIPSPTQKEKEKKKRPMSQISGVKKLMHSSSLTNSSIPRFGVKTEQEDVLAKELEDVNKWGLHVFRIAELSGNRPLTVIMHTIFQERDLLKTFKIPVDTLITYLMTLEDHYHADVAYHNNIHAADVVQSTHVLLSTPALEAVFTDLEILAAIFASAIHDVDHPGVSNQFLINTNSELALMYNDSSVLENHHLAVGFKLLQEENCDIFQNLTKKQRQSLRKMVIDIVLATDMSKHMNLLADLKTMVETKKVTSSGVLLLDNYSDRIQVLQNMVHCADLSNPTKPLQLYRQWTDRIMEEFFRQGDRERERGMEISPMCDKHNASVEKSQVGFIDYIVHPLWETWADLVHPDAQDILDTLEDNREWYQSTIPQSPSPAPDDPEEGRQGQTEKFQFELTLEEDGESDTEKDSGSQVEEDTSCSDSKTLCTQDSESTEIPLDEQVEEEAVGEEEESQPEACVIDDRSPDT
- Type: functional

Recorded AC50, per entry:
CCCCCCCCOc1ccccc1C(=O)Nc1ccc(C(=O)OCC[N+](C)(CC)CC)cc1 [OTILONIUM BROMIDE] | 2.5 µM
CCN(CC)CCOC(=O)c1ccc(N)cc1 | > 10 µM
C#C[C@]1(O)CC[C@H]2[C@@H]3CCC4=CCCC[C@@H]4[C@H]3CC[C@@]21C | > 30 µM
C=C1CC[C@@]2(O)[C@H]3Cc4ccc(O)c5c4[C@@]2(CCN3CC2CC2)[C@H]1O5 | > 30 µM
NC(=O)c1ncn([C@@H]2O[C@H](CO)[C@@H](O)[C@H]2O)c1O | > 30 µM
CN(C)C(=O)OC1N=C(c2ccccc2)c2cc(Cl)ccc2N(C)C1=O (centres undefined) | 4.3 µM

AC50 reported for this compound CN1CCN(C(=O)OC2c3nccnc3C(=O)N2c2ccc(Cl)cn2)CC1 (centres undefined) : > 30 µM

AC50 reported for this compound Nc1nc2ccc(OC(F)(F)F)cc2s1 : 14 µM

AC50 reported for this compound COc1cc2c(cc1OC)C(=O)C(CC1CCN(Cc3ccccc3)CC1)C2 (centres undefined) : > 30 µM

====

- Study system: B2 bradykinin receptor (Homo sapiens, UniProt P30411); also: assay procedure not described here
- Sequence (P30411 whole entry): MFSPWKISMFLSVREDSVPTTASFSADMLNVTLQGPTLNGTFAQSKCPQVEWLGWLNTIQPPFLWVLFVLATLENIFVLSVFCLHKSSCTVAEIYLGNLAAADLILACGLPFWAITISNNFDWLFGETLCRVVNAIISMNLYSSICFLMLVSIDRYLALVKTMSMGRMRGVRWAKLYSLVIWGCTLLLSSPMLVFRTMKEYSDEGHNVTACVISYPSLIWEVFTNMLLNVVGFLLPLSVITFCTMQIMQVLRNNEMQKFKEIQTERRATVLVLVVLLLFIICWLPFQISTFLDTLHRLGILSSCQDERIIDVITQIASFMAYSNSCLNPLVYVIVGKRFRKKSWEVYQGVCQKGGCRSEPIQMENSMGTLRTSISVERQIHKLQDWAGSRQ
List of AC50 values.

Recorded AC50, per entry:
CN1C(=O)CC(c2ccccc2)C1=O (stereo not drawn) [PHENSUXIMIDE] | > 10 µM
CCCCCN(C)CCC(O)(P(=O)(O)O)P(=O)(O)O | > 30 µM
C[C@H]1O[C@H](O[C@H]2[C@H](O)[C@@H](O)[C@@H](O[C@H]3[C@H](O)[C@@H](O)C(O)O[C@@H]3CO)O[C@@H]2CO)[C@H](O)[C@@H](O)[C@@H]1N[C@H]1C=C(CO)[C@@H](O)[C@H](O)[C@H]1O (stereo partly drawn) | > 30 µM
CCC1(C2=CCCCCC2)C(=O)NC(=O)NC1=O | > 10 µM
C=C1CC[C@@]2(O)[C@H]3Cc4ccc(O)c5c4[C@@]2(CCN3CC2CC2)[C@H]1O5 | > 30 µM
CN(C)CCCN1c2ccccc2Sc2ccccc21 | > 30 µM
O=C(O)CCCc1ccccc1 | > 30 µM

Here is the next item to consider.
Item CN(CCOc1ccc(NS(C)(=O)=O)cc1)CCc1ccc(NS(C)(=O)=O)cc1 [DOFETILIDE] was tested on B2 bradykinin receptor (Homo sapiens, UniProt P30411); the reported AC50 is > 30 µM

====

So I've got AC50 readings for Sodium-dependent serotonin transporter (Homo sapiens), take a look.

Recorded AC50, per entry:
CN1CCc2cccc3c2[C@H]1Cc1ccc(O)c(O)c1-3 | 21.9 µM
CN(C)[C@@H]1C(O)=C(C(N)=O)C(=O)[C@@]2(O)C(O)=C3C(=O)c4c(O)ccc(Cl)c4[C@@H](O)[C@H]3C[C@@H]12 | > 10 µM
C#CC1(OC(N)=O)CCCCC1 [ETHINAMATE] | > 10 µM
CN(CCOc1ccc(NS(C)(=O)=O)cc1)CCc1ccc(NS(C)(=O)=O)cc1 [DOFETILIDE] | > 10 µM
CN1C(=O)CC(=O)N(c2ccccc2)c2cc(Cl)ccc21 | > 10 µM

Item CC(C(=O)O)c1ccc(C(=O)c2cccs2)cc1 (centres undefined) was tested on Sodium-dependent serotonin transporter (Homo sapiens); the reported AC50 is > 10 µM

Item CC1=CC(=O)c2ccccc2C1=O was tested on Sodium-dependent serotonin transporter (Homo sapiens); the reported AC50 is > 10 µM

Item C[C@H]1C[C@@H]2[C@H]([C@@H](O)C[C@@]3(C)[C@H]2CC[C@]3(O)C(=O)COC(=O)CCC(=O)O)[C@@]2(C)C=CC(=O)C=C12 [METHYLPREDNISOLONE HEMISUCCINATE] was tested on Sodium-dependent serotonin transporter (Homo sapiens); the reported AC50 is > 30 µM

Item CCC1(C2=CCCCCC2)C(=O)NC(=O)NC1=O was tested on Sodium-dependent serotonin transporter (Homo sapiens); the reported AC50 is > 10 µM

Item CN1CCCN=C1COC(=O)C(O)(c1ccccc1)C1CCCCC1 (centres undefined) was tested on Sodium-dependent serotonin transporter (Homo sapiens); the reported AC50 is > 30 µM

Item Cc1c(Cl)cccc1Nc1ccccc1C(=O)O was tested on Sodium-dependent serotonin transporter (Homo sapiens); the reported AC50 is > 30 µM

Item N[C@@H](CSCC(=O)O)C(=O)O was tested on Sodium-dependent serotonin transporter (Homo sapiens); the reported AC50 is > 30 µM

Item CCCCCCCCOc1ccccc1C(=O)Nc1ccc(C(=O)OCC[N+](C)(CC)CC)cc1 [OTILONIUM BROMIDE] was tested on Sodium-dependent serotonin transporter (Homo sapiens); the reported AC50 is 0.91 µM

Item O=C(C[S+]([O-])C(c1ccccc1)c1ccccc1)NO (centres undefined) was tested on Sodium-dependent serotonin transporter (Homo sapiens); the reported AC50 is > 30 µM
